molecular target: Kv7.2/7.3 channels (Homo sapiens, UniProt O43525+O43526); construct: The entire construct for Kv7.2 and Kv7.3 was subcloned into the pIRESneo3 and pIREShygro3 expression vectors; expressed in transfected cells; assay: Kv7.2/3 channel opening activity, IonWorks planar patch-clamp of K-current at 0 mV; type: cell-based; conditions: CHO-K1 cells expressing human Kv7.2/7.3; IonWorks Quattro, step from -80 mV to 0 mV, 7-point concentration curves
// assign t if EC50 falls strictly below 0.3 µM, else f (ties count as f)

Solved entries:
Compound | Tested On | Group Label
CC(C)(C)CC(=O)Nc1c(C2CC2)nc2c(C(F)(F)F)cccn2c1=O [Example 4] | Kv7.2/7.3 channels (Homo sapiens, UniProt O43525+O43526) | t
CC(C)(C)CC(=O)Nc1c(C2CC2)nc2n(c1=O)CCCC2C(F)(F)F (single isomer, unassigned) [Example 5a] | Kv7.2/7.3 channels (Homo sapiens, UniProt O43525+O43526) | f

// query Quick check: does CC(C)Nc1nc2c(C(F)(F)F)cccn2c(=O)c1NC(=O)CC(C)(C)C [Example 7] have EC50 under 0.3 µM?
// result t

// query Quick check: does CC[C@@H](C)Nc1nc2n(c(=O)c1NC(=O)CC(C)(C)C)CCCC2C (single isomer, unassigned; diastereomer 2) [Example 11b] have EC50 under 0.3 µM?
// result f
